- SYSTEM NAME: T1, MlaE, His-tagged (His-E), permease of the MlaFEDB ABC transporter (UniProt P64606 1-260)
- T1 sequence: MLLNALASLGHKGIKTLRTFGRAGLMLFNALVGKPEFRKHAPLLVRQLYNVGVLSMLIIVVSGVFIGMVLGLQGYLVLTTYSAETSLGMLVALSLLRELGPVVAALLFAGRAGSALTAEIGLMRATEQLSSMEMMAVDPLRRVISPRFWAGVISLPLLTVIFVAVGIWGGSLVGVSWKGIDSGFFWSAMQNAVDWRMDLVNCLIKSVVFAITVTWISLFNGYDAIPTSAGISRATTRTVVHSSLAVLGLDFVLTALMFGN
- TEST METHOD NOTES: SEC
EXPERIMENTAL READOUT: binding result

MlaD Δ141-183 (natural protein) MQTKKNEIWVGIFLLAALLAALFVCLKAANVTSIRTEPTYTLYATFDNIGGLKARSPVSIGGVVVGRVADITLDPKTYLPRVTLEIEQRYNHIPDTSSLSIRTSGLLGEQYLALNVGFEDPELGTAILKDGDTIQDTKSA = binds
MlaD, substrate-binding MCE-domain protein of the MlaFEDB complex (natural protein) MQTKKNEIWVGIFLLAALLAALFVCLKAANVTSIRTEPTYTLYATFDNIGGLKARSPVSIGGVVVGRVADITLDPKTYLPRVTLEIEQRYNHIPDTSSLSIRTSGLLGEQYLALNVGFEDPELGTAILKDGDTIQDTKSAMVLEDLIGQFLYGSKGDDNKNSGDAPAAAPGNNETTEPVGTTK = binds
